Source of measurements: paper PMC11024197

Biological target: T1, PEX14 NTD (1-104) (human, UniProt O75381 1-104)
T1 chain: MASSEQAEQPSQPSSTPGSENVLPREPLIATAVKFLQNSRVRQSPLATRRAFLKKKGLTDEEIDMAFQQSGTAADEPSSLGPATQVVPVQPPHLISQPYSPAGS
Test: ITC
value type: Kd (nM)

1 = AQAEQWAAEFIQQQG [PEX5 W5 peptide]
2 = ALSENWAQEFLAAGD [PEX5 W1 peptide]
Would you let me know which has the greater Kd value, 1 or 2 ? // return label of chosen record
2
(2: 72 nM, 1: 21 nM)
